target: human GPR84 (Homo sapiens, UniProt P04899+Q9NQS5)
Construct: expressed in transfected cells; host or cells: Flp-In T-REx 293 cells, doxycycline-induced; membrane preparations
Sequence (Q9NQS5+P04899 fused): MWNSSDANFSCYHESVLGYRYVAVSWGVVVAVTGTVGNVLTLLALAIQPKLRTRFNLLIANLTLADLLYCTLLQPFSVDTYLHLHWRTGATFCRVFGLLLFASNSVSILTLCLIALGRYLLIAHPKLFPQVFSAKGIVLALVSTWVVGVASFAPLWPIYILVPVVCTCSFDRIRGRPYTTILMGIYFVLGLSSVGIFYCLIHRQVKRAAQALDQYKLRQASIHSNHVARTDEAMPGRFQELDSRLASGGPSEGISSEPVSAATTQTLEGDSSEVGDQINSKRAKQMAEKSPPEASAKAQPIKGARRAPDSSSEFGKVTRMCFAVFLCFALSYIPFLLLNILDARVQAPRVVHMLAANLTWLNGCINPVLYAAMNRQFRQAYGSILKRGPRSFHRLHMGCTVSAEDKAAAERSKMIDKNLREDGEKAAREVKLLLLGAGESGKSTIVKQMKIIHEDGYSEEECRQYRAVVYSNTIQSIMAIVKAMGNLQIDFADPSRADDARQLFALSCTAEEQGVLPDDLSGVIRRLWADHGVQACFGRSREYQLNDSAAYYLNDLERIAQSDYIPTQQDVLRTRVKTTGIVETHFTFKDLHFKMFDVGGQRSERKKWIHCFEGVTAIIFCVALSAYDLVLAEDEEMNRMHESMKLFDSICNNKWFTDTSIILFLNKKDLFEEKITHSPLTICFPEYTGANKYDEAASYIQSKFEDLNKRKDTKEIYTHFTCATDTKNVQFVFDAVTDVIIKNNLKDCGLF
assaySummary: biochemical
Type: biochemical
measurementParameters: [35S]GTPγS assay; negative log of the IC50 in molar; mean ± SEM
Quick reference for GTPγS (pIC50) among some molecules
Reply briefly: the number, and no unit.

Examples with their reported GTPγS (pIC50) follow.
O=C(NCCO)c1ccc(-c2nnc(Cc3c[nH]c4cnccc34)nc2-c2ccccc2)cc1; 7.04
NC(=O)CNC(=O)c1ccc(-c2nnc(Cc3c[nH]c4ccccc34)nc2-c2ccccc2)cc1; 5.80

The molecule "OCc1ccc(-c2nc(Cc3c[nH]c4ccccc34)nnc2-c2ccccc2)cc1" showed GTPγS (pIC50) equal to 7.16

// sample "CN(C)Cc1ccc(-c2nc(Cc3c[nH]c4ccccc34)nnc2-c2ccccc2)cc1" , its GTPγS (pIC50) was 6.20

Recorded GTPγS (pIC50) (molecule "c1csc(-c2nnc(Cc3c[nH]c4ccccc34)nc2-c2cccs2)c1" ): 7.62

Measured GTPγS (pIC50), "COc1ccc(-c2nnc(Cc3c[nH]c4ccc(F)cc34)nc2-c2ccc(OC)cc2)cc1" : 6.92

The recorded GTPγS (pIC50) for "CC(=O)NCc1ccc(-c2nnc(Cc3c[nH]c4ccccc34)nc2-c2ccccc2)cc1" is 7.98

Given item "Brc1ccc(-c2nnc(Cc3c[nH]c4ccccc34)nc2-c2ccc(Br)cc2)cc1" , the value recorded as its GTPγS (pIC50) is 7.60

----------
assaySummary: physchem
measurementParameters: pH 7.4, Kinetic Solubility, Mean, PBS pH7.4 in 2% DMSO by LC-MS
quantityName: solubility kinetic (µM)
Number only, in µM; omit the unit.

Record CC(=O)N1CCN(c2ccc(OCC3COC(Cn4ccnc4)(c4ccc(Cl)cc4Cl)O3)cc2)CC1 (centres unmarked) [Ketoconazole, reference compound] . Reported solubility kinetic: 103

For c1ccc(-c2nc[nH]c2-c2ccccc2)cc1 [DPI, 4,5-Diphenylimidazole, reference compound] the compound record lists solubility kinetic as 27

----------
assaySummary: In vivo mouse PK, PO dosing
measurementParameters: male, C57BL/6J, plasma, PO (10 mg/kg) vs IV (1 mg/kg), CV % in parenthesis
Description: Mouse pharmacokinetic studies were carried out by Xenogesis Ltd. (Nottingham, U.K.). All life phases were conducted in accordance with the local Ethics Review process. Male C57BL/6J mice (n = 3, Charles River, U.K.) were orally administered with a dose of 10 mg/kg of the appropriate compound (formulation 0.5% w/v methylcellulose in water). […] Plasma concentrations were determined by LC/MS/MS. […]
# bioavailability annotations
Numbers only; they are read as %.

O=C(NCCO)c1ccc(-c2nnc(Cc3c[nH]c4ccccc34)nc2-c2ccccc2)cc1; 41.5

Entry "c1ccc(-c2nc(Cc3c[nH]c4ccccc34)nnc2-c2ccc(CN3CCOCC3)cc2)cc1" , bioavailability reported as 36.8

----------
assaySummary: Mouse hepatocyte stability
Type: in vitro ADME
measurementParameters: hepatocytes, read-out: mouse heps t1/2
quantityName: half-life

Past entries and their recorded results:
O=C(NCCO)c1ccc(-c2nnc(Cc3c[nH]c4ccccc34)nc2-c2ccccc2)cc1; 47.3 min
c1ccc(-c2nnc(Cc3c[nH]c4ccccc34)nc2-c2ccccc2)cc1; 4.4 min
c1ccc(-c2nc(Cc3c[nH]c4ccccc34)nnc2-c2ccc(CN3CCOCC3)cc2)cc1; 16 min

Looking up "CNC(=O)c1ccc(-c2nnc(Cc3c[nH]c4cnccc34)nc2-c2ccccc2)cc1" , I found its half-life recorded as 12.5 min
